Tested on: SF-268 CNS
procedureText: NCI tumour cell line growth inhibition, 48 h
quantityMeasured: TGI

[
  {
    "molecule": "Cn1c2c(c3ccccc31)CC(=O)N1CCCCC1C21OCCO1 (centres undefined)",
    "result": "> 100 µM"
  },
  {
    "molecule": "COc1cc(-c2cc(-c3nc4ccccc4[nH]3)[nH]n2)cc(OC)c1OC",
    "result": "21.9 µM"
  },
  {
    "molecule": "Cc1c(C(=O)CC(=O)C(=O)Nc2cccc(C(F)(F)F)c2)[n+](=O)c2ccccc2n1[O-]",
    "result": "14.4 µM"
  },
  {
    "molecule": "Cc1ccc(C2=Nc3ccccc3NC(=O)C2)cc1",
    "result": "> 100 µM"
  },
  {
    "molecule": "CN(C)c1ccc(/C=C2\\N=C(c3ccc(N)cc3)OC2=O)cc1",
    "result": "> 100 µM"
  }
]

Switching to the query record.
Ask | Which TGI is reported with SF-268 CNS for this entry: CN1CCN(Cc2ccc(NC(=O)c3[nH]ncc3Nc3ncnc4c3CCC4)cc2)CC1 ?
Reply | 7.78 µM

Value source: PubChem BioAssay (NCI)
